Tested on: Pseudomonas aeruginosa
assayDetails: Antimicrobial activity against Pseudomonas aeruginosa ATCC 27853 by broth dilution method
Assay type: functional
Where a SMILES comes first, the peptide text is derived from it. [ ]: non-standard residue; d: D form. Gly(1-adamantyl) = N[C@H](C(=O)O)C12CC3CC(CC(C3)C1)C2; Orn = NCCC[C@H](N)C(=O)O
Record form. Attribute: MIC. Fill in for each entry.

Some solved cases for reference:
# molecule, endpointLabel, result
rows = [
    ("CC(C)C[C@@H]1NC(=O)[C@H](CCCN)NC(=O)[C@H](C(C)C)NC(=O)[C@@H]2CCCN2C(=O)[C@@H](Cc2ccccc2)NC(=O)[C@H](CC(C)C)NC(=O)[C@H](CCCN)NC(=O)[C@H](C(C)C)NC(=O)[C@H](CCCN)NC(=O)[C@H](CC(C)C)NC(=O)[C@@H]2CCCN2C(=O)[C@@H](Cc2ccccc2)NC(=O)[C@H](C(C)C)NC(=O)[C@H](CCCN)NC1=O (cyclo(L[Orn]V[Orn]L[dF]PV[Orn]L[Orn]V[dF]P))", "MIC", "32 µg/mL"),
    ("CC(C)C[C@@H]1NC(=O)[C@H](CCCCN)NC(=O)[C@H](C(C)C)NC(=O)[C@@H]2CCCN2C(=O)[C@@H](Cc2ccc(O)cc2)NC(=O)[C@H](CC(C)C)NC(=O)[C@H](CCCCN)NC(=O)[C@H](C(C)C)NC(=O)[C@H](CCCCN)NC(=O)[C@H](CC(C)C)NC(=O)[C@@H]2CCCN2C(=O)[C@@H](Cc2ccc(O)cc2)NC(=O)[C@H](C(C)C)NC(=O)[C@H](CCCCN)NC1=O (cyclo(VKLKV[dY]PLKVKL[dY]P))", "MIC", "> 64 µg/mL"),
    ("NCCC[C@@H]1NC(=O)[C@H](C23CC4CC(CC(C4)C2)C3)NC(=O)[C@H](CCCN)NC(=O)[C@@H]2CCCN2C(=O)[C@@H](Cc2ccccc2)NC(=O)[C@H](CCCN)NC(=O)[C@H](C23CC4CC(CC(C4)C2)C3)NC(=O)[C@H](CCCN)NC(=O)[C@@H]2CCCN2C(=O)[C@@H](Cc2ccccc2)NC1=O (cyclo([Orn][dF]P[Orn][Gly(1-adamantyl)][Orn][dF]P[Orn][Gly(1-adamantyl)]))", "MIC", "8 µg/mL"),
    ("CC(C)C[C@@H]1NC(=O)[C@H](CCCN)NC(=O)[C@H](C(C)C)NC(=O)[C@H](CCCN)NC(=O)[C@@H]2CCCN2C(=O)[C@@H](Cc2ccccc2)NC(=O)[C@H](CCCN)NC(=O)[C@H](CC23CC4CC(CC(C4)C2)C3)NC(=O)[C@H](CCCN)NC(=O)[C@H](C23CC4CC(CC(C4)C2)C3)NC(=O)[C@H](CCCN)NC(=O)[C@@H]2CCCN2C(=O)[C@@H](Cc2ccccc2)NC(=O)[C@H](CCCN)NC1=O", "MIC", "8 µg/mL"),
]

Now for another entry.
IN: # lookup: MIC of CC(C)C[C@@H]1NC(=O)[C@H](CCCN)NC(=O)[C@H](C(C)C)NC(=O)[C@H](CCCN)NC(=O)[C@@H]2CCCN2C(=O)[C@@H](Cc2ccccc2)NC(=O)[C@H](CCCN)NC(=O)[C@H](CC23CC4CC(CC(C4)C2)C3)NC(=O)[C@H](CCCN)NC(=O)[C@H](C(C)C)NC(=O)[C@H](CCCN)NC(=O)[C@@H]2CCCN2C(=O)[C@@H](Cc2ccccc2)NC(=O)[C@H](CCCN)NC1=O
OUT: 16 µg/mL

----------
Tested on: Staphylococcus aureus
assayDetails: Antimicrobial activity against Staphylococcus aureus ATCC 29213 by broth dilution method
Type: functional
Where a SMILES comes first, the peptide text is derived from it. [ ]: non-standard residue; d: D form. Gly(1-adamantyl) = N[C@H](C(=O)O)C12CC3CC(CC(C3)C1)C2; Orn = NCCC[C@H](N)C(=O)O
endpointLabel: MIC (mg/L)
One number for each entry, in mg/L.

Some solved cases for reference:
# compound, MIC / mg/L
measured = [
    ("CC(C)C[C@@H]1NC(=O)[C@H](CCCN)NC(=O)[C@H](C23CC4CC(CC(C4)C2)C3)NC(=O)[C@H](CCCN)NC(=O)[C@@H]2CCCN2C(=O)[C@@H](Cc2ccccc2)NC(=O)[C@H](CCCN)NC(=O)[C@H](CC23CC4CC(CC(C4)C2)C3)NC(=O)[C@H](CCCN)NC(=O)[C@H](C23CC4CC(CC(C4)C2)C3)NC(=O)[C@H](CCCN)NC(=O)[C@@H]2CCCN2C(=O)[C@@H](Cc2ccccc2)NC(=O)[C@H](CCCN)NC1=O", 16),
    ("CC(C)C[C@@H]1NC(=O)[C@H](CCCN)NC(=O)[C@H](C(C)C)NC(=O)[C@@H]2CCCN2C(=O)[C@@H](Cc2ccccc2)NC(=O)[C@H](CC(C)C)NC(=O)[C@H](CCCN)NC(=O)[C@H](C(C)C)NC(=O)[C@@H]2CCCN2C(=O)[C@@H](Cc2ccccc2)NC1=O [GRAMICIDIN S] (cyclo(L[dF]PV[Orn]L[dF]PV[Orn]))", 32),
    ("NCCC[C@@H]1NC(=O)[C@H](C23CC4CC(CC(C4)C2)C3)NC(=O)[C@H](CCCN)NC(=O)[C@@H]2CCCN2C(=O)[C@@H](Cc2ccccc2)NC(=O)[C@H](CCCN)NC(=O)[C@H](C23CC4CC(CC(C4)C2)C3)NC(=O)[C@H](CCCN)NC(=O)[C@@H]2CCCN2C(=O)[C@@H](Cc2ccccc2)NC1=O (cyclo([Orn][dF]P[Orn][Gly(1-adamantyl)][Orn][dF]P[Orn][Gly(1-adamantyl)]))", 8),
    ("CC(C)C[C@@H]1NC(=O)[C@H](CCCN)NC(=O)[C@H](C23CC4CC(CC(C4)C2)C3)NC(=O)[C@H](CCCN)NC(=O)[C@@H]2CCCN2C(=O)[C@@H](Cc2ccccc2)NC(=O)[C@H](CCCN)NC(=O)[C@H](CC(C)C)NC(=O)[C@H](CCCN)NC(=O)[C@H](C23CC4CC(CC(C4)C2)C3)NC(=O)[C@H](CCCN)NC(=O)[C@@H]2CCCN2C(=O)[C@@H](Cc2ccccc2)NC(=O)[C@H](CCCN)NC1=O", 8),
]

IN: # lookup: MIC of CC(C)[C@@H]1NC(=O)[C@H](CCCN)NC(=O)[C@@H]2CCCN2C(=O)[C@@H](Cc2ccccc2)NC(=O)[C@H](CCCN)NC(=O)[C@H](CC23CC4CC(CC(C4)C2)C3)NC(=O)[C@H](CCCN)NC(=O)[C@H](C(C)C)NC(=O)[C@H](CCCN)NC(=O)[C@@H]2CCCN2C(=O)[C@@H](Cc2ccccc2)NC(=O)[C@H](CCCN)NC(=O)[C@H](CC23CC4CC(CC(C4)C2)C3)NC(=O)[C@H](CCCN)NC1=O
OUT: 8

----------
Record form. Attribute: MIC. Fill in for each entry.
Tested on: Staphylococcus epidermidis
assayDetails: Antimicrobial activity against Staphylococcus epidermidis ATCC 12228 by broth dilution method
Format: functional
Where a SMILES comes first, the peptide text is derived from it. [ ]: non-standard residue; d: D form.
One number for each entry, in µg/mL.

# compound, number
records = [
    ("CC(C)C[C@@H]1NC(=O)[C@H](CCCN)NC(=O)[C@H](C(C)C)NC(=O)[C@H](CCCN)NC(=O)[C@@H]2CCCN2C(=O)[C@@H](Cc2ccccc2)NC(=O)[C@H](CCCN)NC(=O)[C@H](CC23CC4CC(CC(C4)C2)C3)NC(=O)[C@H](CCCN)NC(=O)[C@H](C23CC4CC(CC(C4)C2)C3)NC(=O)[C@H](CCCN)NC(=O)[C@@H]2CCCN2C(=O)[C@@H](Cc2ccccc2)NC(=O)[C@H](CCCN)NC1=O", 4),
    ("CC(C)C[C@@H]1NC(=O)[C@H](CCCCN)NC(=O)[C@H](C(C)C)NC(=O)[C@@H]2CCCN2C(=O)[C@@H](Cc2ccc(O)cc2)NC(=O)[C@H](CC(C)C)NC(=O)[C@H](CCCCN)NC(=O)[C@H](C(C)C)NC(=O)[C@H](CCCCN)NC(=O)[C@H](CC(C)C)NC(=O)[C@@H]2CCCN2C(=O)[C@@H](Cc2ccc(O)cc2)NC(=O)[C@H](C(C)C)NC(=O)[C@H](CCCCN)NC1=O (cyclo(VKLKV[dY]PLKVKL[dY]P))", 64),
    ("CC(C)C[C@@H]1NC(=O)[C@H](CCCN)NC(=O)[C@H](C(C)C)NC(=O)[C@H](CCCN)NC(=O)[C@@H]2CCCN2C(=O)[C@@H](Cc2ccccc2)NC(=O)[C@H](CCCN)NC(=O)[C@H](CC(C)C)NC(=O)[C@H](CCCN)NC(=O)[C@H](C23CC4CC(CC(C4)C2)C3)NC(=O)[C@H](CCCN)NC(=O)[C@@H]2CCCN2C(=O)[C@@H](Cc2ccccc2)NC(=O)[C@H](CCCN)NC1=O", 4),
    ("CC(C)C[C@@H]1NC(=O)[C@H](CCCN)NC(=O)[C@H](C(C)C)NC(=O)[C@H](CCCN)NC(=O)[C@@H]2CCCN2C(=O)[C@@H](Cc2ccccc2)NC(=O)[C@H](CCCN)NC(=O)[C@H](CC(C)C)NC(=O)[C@H](CCCN)NC(=O)[C@H](C(C)C)NC(=O)[C@H](CCCN)NC(=O)[C@@H]2CCCN2C(=O)[C@@H](Cc2ccccc2)NC(=O)[C@H](CCCN)NC1=O", 8),
]

Now for another entry.
IN: # lookup: MIC of CC(C)[C@@H]1NC(=O)[C@H](CCCN)NC(=O)[C@@H]2CCCN2C(=O)[C@@H](Cc2ccccc2)NC(=O)[C@H](CCCN)NC(=O)[C@H](CC23CC4CC(CC(C4)C2)C3)NC(=O)[C@H](CCCN)NC(=O)[C@H](C(C)C)NC(=O)[C@H](CCCN)NC(=O)[C@@H]2CCCN2C(=O)[C@@H](Cc2ccccc2)NC(=O)[C@H](CCCN)NC(=O)[C@H](CC23CC4CC(CC(C4)C2)C3)NC(=O)[C@H](CCCN)NC1=O
OUT: 8
